These data points were gathered from ChEMBL document CHEMBL5143746.

TARGET: Protein cereblon/DNA damage-binding protein 1 (Homo sapiens)
Sequence (Q96SW2 whole entry): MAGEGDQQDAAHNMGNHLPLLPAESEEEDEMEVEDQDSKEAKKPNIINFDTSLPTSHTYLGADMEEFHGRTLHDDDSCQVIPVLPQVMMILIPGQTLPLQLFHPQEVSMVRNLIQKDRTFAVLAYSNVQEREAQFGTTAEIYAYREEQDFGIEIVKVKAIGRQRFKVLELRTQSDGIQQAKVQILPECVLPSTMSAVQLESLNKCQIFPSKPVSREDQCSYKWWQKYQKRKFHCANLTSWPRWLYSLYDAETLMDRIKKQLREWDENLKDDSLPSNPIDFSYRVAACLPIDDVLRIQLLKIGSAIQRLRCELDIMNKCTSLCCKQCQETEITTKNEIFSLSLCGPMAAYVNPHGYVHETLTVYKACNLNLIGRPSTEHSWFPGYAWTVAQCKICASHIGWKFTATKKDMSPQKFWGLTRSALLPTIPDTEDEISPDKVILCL
Sequence (Q16531 whole entry, further chain): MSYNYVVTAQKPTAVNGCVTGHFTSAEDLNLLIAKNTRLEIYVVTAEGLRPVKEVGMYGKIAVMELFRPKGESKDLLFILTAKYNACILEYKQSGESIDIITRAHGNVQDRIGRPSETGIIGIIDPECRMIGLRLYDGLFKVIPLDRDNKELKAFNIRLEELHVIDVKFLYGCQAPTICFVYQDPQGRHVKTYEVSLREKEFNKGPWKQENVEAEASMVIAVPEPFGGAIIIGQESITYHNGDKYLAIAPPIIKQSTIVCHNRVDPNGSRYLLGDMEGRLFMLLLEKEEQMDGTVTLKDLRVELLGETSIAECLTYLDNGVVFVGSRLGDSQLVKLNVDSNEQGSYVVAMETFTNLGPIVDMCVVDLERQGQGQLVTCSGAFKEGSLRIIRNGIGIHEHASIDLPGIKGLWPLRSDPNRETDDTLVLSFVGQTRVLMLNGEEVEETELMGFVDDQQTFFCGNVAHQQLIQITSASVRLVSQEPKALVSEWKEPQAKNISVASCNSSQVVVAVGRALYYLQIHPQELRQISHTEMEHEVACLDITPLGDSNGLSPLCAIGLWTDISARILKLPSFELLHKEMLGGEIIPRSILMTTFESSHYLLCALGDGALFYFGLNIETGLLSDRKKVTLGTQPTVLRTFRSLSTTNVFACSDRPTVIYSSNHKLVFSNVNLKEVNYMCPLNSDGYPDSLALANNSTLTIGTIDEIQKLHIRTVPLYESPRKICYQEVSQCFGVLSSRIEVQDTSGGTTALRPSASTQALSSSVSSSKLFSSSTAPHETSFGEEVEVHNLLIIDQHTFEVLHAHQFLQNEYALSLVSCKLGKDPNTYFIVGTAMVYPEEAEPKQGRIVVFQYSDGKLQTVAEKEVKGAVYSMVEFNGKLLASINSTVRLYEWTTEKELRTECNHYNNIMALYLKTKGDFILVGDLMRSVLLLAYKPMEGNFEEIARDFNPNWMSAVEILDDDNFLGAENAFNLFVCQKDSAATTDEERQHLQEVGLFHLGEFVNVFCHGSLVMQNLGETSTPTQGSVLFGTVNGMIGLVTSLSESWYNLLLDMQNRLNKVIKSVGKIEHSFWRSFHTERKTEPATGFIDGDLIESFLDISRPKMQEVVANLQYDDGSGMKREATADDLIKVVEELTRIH
TEST_NAME: Displacement of BODIPY FL thalidomide from 6His-tagged CRBN/DDB1 (unknown origin) expressed in baculovirus infected Sf9 insect cells incubated for 1 min under shaking condition followed by 60 mins incubation under dark condition by TR-FRET assay
# label = yes (1) if EC50 < 20 nM else no (0)

Input: Just wondering, is EC50 of COc1ccc(OC)c(-n2nnc(C(=O)Nc3cc(OC(=O)CNc4cccc5c4C(=O)N(C4CCC(=O)NC4=O)C5=O)cc(C(C)(C)C)c3)c2C)c1 (configuration not stated) below 20 nM?
Output: yes (1)

Input: Just wondering, is EC50 of COc1ccc(OC)c(-n2nnc(C(=O)Nc3cc(OCCNc4cccc5c4C(=O)N(C4CCC(=O)NC4=O)C5=O)cc(C(C)(C)C)c3)c2C)c1 (configuration not stated) below 20 nM?
Output: no (0)

Input: Just wondering, is EC50 of COc1ccc(OC)c(-n2nnc(C(=O)Nc3cc(NCCNc4cccc5c4C(=O)N(C4CCC(=O)NC4=O)C5=O)cc(C(C)(C)C)c3)c2C)c1 (configuration not stated) below 20 nM?
Output: no (0)

Input: Just wondering, is EC50 of COc1ccc(OC)c(-n2nnc(C(=O)Nc3cc(NC(=O)CNc4cccc5c4C(=O)N(C4CCC(=O)NC4=O)C5=O)cc(C(C)(C)C)c3)c2C)c1 (configuration not stated) below 20 nM?
Output: yes (1)

Input: Just wondering, is EC50 of CC(C)(C)c1cc(N)cc(Oc2cccc3c2C(=O)N(C2CCC(=O)NC2=O)C3=O)c1 (configuration not stated) below 20 nM?
Output: yes (1)

Input: Just wondering, is EC50 of COc1ccc(OC)c(-n2nnc(C(=O)Nc3cc(Oc4cccc5c4C(=O)N(C4CCC(=O)NC4=O)C5=O)cc(C(C)(C)C)c3)c2C)c1 (configuration not stated) below 20 nM?
Output: no (0)

Input: Just wondering, is EC50 of COc1ccc(OC)c(-n2nnc(S(=O)(=O)c3ccc(C(C)(C)C)cc3)c2C)c1 below 20 nM?
Output: no (0)
